# ASSAY_SYSTEM: canine TRPM8 (Canis lupus familiaris)
# PROTOCOL: In Vitro Canine TRPM8 Functional Assay (Ca2+ fluorescence, icilin activation)
# Type: cell-based
# ASSAY_SETUP: compound at 0.2 μM; canine TRPM8, icilin activation; read-out: % Inh @ 0.2
REPORTED_PROPERTY: inhibition at 0.2 µM (%)
Return type: number; implicit unit %.

STRUCTURE_NOTATION: CS(=O)(=O)Nc1c(Cl)cc(S(=O)(=O)N(CCCCC(F)(F)F)c2sc3ccccc3c2Cl)cc1Cl
inhibition at 0.2 µM (%): 101
--
STRUCTURE_NOTATION: CC(=O)c1c(N(Cc2ccc(F)c(C(F)(F)F)c2)S(=O)(=O)c2ccc(Br)cc2)sc2ccccc12
inhibition at 0.2 µM (%): 101
--
STRUCTURE_NOTATION: Cc1c(N(CCC2CC2)S(=O)(=O)c2nc3ccccc3n2C)sc2ccccc12
inhibition at 0.2 µM (%): 74
--
STRUCTURE_NOTATION: O=S(=O)(c1cccnc1Cl)N(Cc1ccc(F)c(C(F)(F)F)c1)c1sc2ccccc2c1Br
inhibition at 0.2 µM (%): 100

Req: Give me measured inhibition at 0.2 µM, please, for this compound: O=C(O)c1ccc(S(=O)(=O)N(CC23CC4CC(CC(C4)C2)C3)c2sc3ccccc3c2Br)cc1
Resp: 98

Req: Please indicate inhibition at 0.2 µM recorded for O=C(O)c1ccc(S(=O)(=O)N(CCCCC(F)(F)F)c2cc3ccccc3s2)c(F)c1
Resp: 102

Req: Provide inhibition at 0.2 µM value for the following compound: COC(=O)c1ccc(S(=O)(=O)N(Cc2ccc(F)c(C(F)(F)F)c2)c2sc3ccccc3c2C(C)C)cc1
Resp: 94

---

In this section, each of the molecules is paired with its reported pIC50.
# ASSAY_SYSTEM: canine TRPM8 (Canis lupus familiaris, UniProt Q1A7N1)
# Sequence (Q1A7N1 1-1104): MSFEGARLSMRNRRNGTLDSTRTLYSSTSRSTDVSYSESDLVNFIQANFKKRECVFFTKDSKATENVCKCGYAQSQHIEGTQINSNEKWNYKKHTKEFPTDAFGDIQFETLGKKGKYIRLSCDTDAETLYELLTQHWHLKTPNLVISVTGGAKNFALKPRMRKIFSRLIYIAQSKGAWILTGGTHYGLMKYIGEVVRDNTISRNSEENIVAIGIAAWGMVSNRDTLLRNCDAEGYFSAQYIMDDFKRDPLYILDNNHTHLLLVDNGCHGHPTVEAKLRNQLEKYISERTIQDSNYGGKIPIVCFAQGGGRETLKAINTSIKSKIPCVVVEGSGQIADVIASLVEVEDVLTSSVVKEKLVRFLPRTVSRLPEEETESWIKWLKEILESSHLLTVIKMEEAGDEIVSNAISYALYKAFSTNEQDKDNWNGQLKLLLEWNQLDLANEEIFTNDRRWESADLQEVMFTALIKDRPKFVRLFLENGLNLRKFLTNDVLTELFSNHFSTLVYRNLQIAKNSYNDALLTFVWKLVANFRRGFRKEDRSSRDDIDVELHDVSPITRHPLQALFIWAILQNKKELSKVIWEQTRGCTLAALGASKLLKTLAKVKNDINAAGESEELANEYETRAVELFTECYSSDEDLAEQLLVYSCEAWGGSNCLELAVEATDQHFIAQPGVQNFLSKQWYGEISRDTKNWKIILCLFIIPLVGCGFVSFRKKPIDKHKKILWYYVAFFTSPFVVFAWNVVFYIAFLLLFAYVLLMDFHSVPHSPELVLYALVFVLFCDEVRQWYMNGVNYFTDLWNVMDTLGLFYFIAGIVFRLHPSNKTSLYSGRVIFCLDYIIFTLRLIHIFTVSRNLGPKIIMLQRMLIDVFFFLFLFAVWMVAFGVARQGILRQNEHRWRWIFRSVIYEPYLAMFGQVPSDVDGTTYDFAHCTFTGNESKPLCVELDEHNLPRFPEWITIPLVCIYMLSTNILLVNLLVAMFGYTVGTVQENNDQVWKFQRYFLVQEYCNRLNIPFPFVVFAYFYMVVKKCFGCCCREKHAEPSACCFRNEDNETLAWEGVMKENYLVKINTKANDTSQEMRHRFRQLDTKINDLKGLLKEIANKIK
# PROTOCOL: In Vitro Canine TRPM8 Functional Assay (Ca2+ fluorescence, icilin activation)
# Format: cell-based
# ASSAY_SETUP: HEK293 cells stably expressing canine TRPM8; icilin activation; eight-point dose-response; read-out: IC50
On this scale, pIC50 is minus log10 of a concentration expressed in M (mol/L).

Examples with answers:
STRUCTURE_NOTATION: Cc1c(N(CCC2CC2)S(=O)(=O)c2ccc(N3CCOCC3)cc2)sc2ccccc12
OBSERVED_MEASUREMENT: 7.76
//
STRUCTURE_NOTATION: Cn1cnc(S(=O)(=O)N(Cc2ccc(F)c(F)c2)c2sc3ccccc3c2Br)c1
OBSERVED_MEASUREMENT: 7.81

Consider the additional molecule presented here.
Req: Quote pIC50 reported for O=S(=O)(c1ccccc1)N(Cc1ccccc1OC(F)(F)F)c1sc2ccccc2c1Br please.
Resp: 7.95

---

# ASSAY_SYSTEM: canine TRPM8 (Canis lupus familiaris)
# PROTOCOL: In Vitro Canine TRPM8 Functional Assay (Ca2+ fluorescence, icilin activation)
# Format: cell-based
# ASSAY_SETUP: compound at 0.2 μM; canine TRPM8, icilin activation; read-out: % Inh @ 0.2
REPORTED_PROPERTY: inhibition at 0.2 µM (%)
The response must be a number in % with no trailing unit.

# example entries with known answers
COMPOUND: O=c1[nH]c(-c2ccc(S(=O)(=O)N(Cc3ccc(F)c(C(F)(F)F)c3)c3cc4ccccc4s3)cc2)no1
OBSERVED_MEASUREMENT: 101

COMPOUND: CS(=O)(=O)N(Cc1ccc(F)c(F)c1)c1sc2ccccc2c1C=O
OBSERVED_MEASUREMENT: 98

COMPOUND: CS(=O)(=O)Nc1ccc(S(=O)(=O)N(CCCCC(F)(F)F)c2sc3ccccc3c2Cl)cc1
OBSERVED_MEASUREMENT: 100

COMPOUND: Cc1c(N(CCCCC(F)(F)F)S(=O)(=O)c2ccc(N3CCOCC3)nc2)sc2ccccc12
OBSERVED_MEASUREMENT: 100

COMPOUND: CCS(=O)(=O)N(Cc1ccc(F)c(C(F)(F)F)c1)c1sc2ccccc2c1C(C)(C)O
OBSERVED_MEASUREMENT: 101

COMPOUND: O=c1[nH]c(-c2ccc(S(=O)(=O)N(CCC3CC3)c3sc4ccccc4c3Cl)cc2)no1
OBSERVED_MEASUREMENT: 103

COMPOUND: CCCCN(c1sc2ccccc2c1C(N)=O)S(=O)(=O)c1ccc(C(=O)OC)cc1
OBSERVED_MEASUREMENT: 90

COMPOUND: Cc1c(N(Cc2ccc(F)c(C(F)(F)F)c2)S(=O)(=O)c2ccc(-c3cnco3)cc2)sc2ccccc12
OBSERVED_MEASUREMENT: 98

COMPOUND: O=C(O)c1cccc(S(=O)(=O)N(Cc2ccc(F)c(C(F)(F)F)c2)c2sc3ccccc3c2Br)c1
OBSERVED_MEASUREMENT: 101

COMPOUND: O=C(O)c1cccc(S(=O)(=O)N(Cc2ccc(F)c(C(F)(F)F)c2)c2sc3ccccc3c2Cl)c1
OBSERVED_MEASUREMENT: 101

Req: Could you please provide reported inhibition at 0.2 µM for O=C(O)c1ccc(S(=O)(=O)N(Cc2ccc(OC(F)(F)F)cc2)c2sc3ccccc3c2C2CCC2)cc1 ? Thanks!
Resp: 101

Req: Write down inhibition at 0.2 µM measured for item CCCCCCN(c1sc2ccccc2c1Br)S(=O)(=O)c1ccc(C(=O)O)cc1
Resp: 95

Req: State its inhibition at 0.2 µM: COC(=O)c1cccc(CN(c2cc3ccccc3s2)S(=O)(=O)c2cccnc2)c1
Resp: 54

Req: Look up and report measured inhibition at 0.2 µM for this entry: CS(=O)(=O)Nc1ccc(S(=O)(=O)N(Cc2ccc(F)c(C(F)(F)F)c2)c2sc3ccccc3c2Br)cc1Br
Resp: 100

Req: Return inhibition at 0.2 µM (reported value) for this compound: CCS(=O)(=O)N(Cc1ccc(F)c(F)c1)c1sc2ccccc2c1C=O
Resp: 101

Req: For the compound O=c1[nH]c(-c2ccc(S(=O)(=O)N(CCC(F)(F)F)c3sc4ccccc4c3Br)cc2)no1 , report inhibition at 0.2 µM.
Resp: 101

Req: // fetch inhibition at 0.2 µM given entry Nc1ccc(S(=O)(=O)N(CCCCC(F)(F)F)c2sc3ccccc3c2Cl)cc1Cl
Resp: 103

Req: Output inhibition at 0.2 µM of Cc1c(N(CCc2ccccc2)S(=O)(=O)c2ccccc2)sc2ccccc12
Resp: 98

Req: Answer with reported inhibition at 0.2 µM of Cc1c(N(Cc2ccc(OC(F)F)cc2)S(=O)(=O)c2ccc(C(=O)O)cc2)sc2ccccc12
Resp: 101

Req: Please give measured inhibition at 0.2 µM of the following entry: O=S(=O)(Nc1ccc(S(=O)(=O)N(CCC2CC2)c2sc3ccccc3c2Cl)cc1)C1CC1
Resp: 96

Req: Assign inhibition at 0.2 µM to the following record: O=C(O)c1ccc(S(=O)(=O)N(Cc2ccc(F)c(C(F)(F)F)c2)c2sc3ccccc3c2C2CCC2)cc1
Resp: 102

Req: Return inhibition at 0.2 µM for the following compound: CCCCN(C1=C(N(C)C)c2ccccc2S1(=O)=O)S(=O)(=O)c1ccc(C(=O)O)cc1
Resp: 89

Req: # return recorded inhibition at 0.2 µM for entry COc1cccc(S(=O)(=O)N(Cc2ccc(F)c(C(F)(F)F)c2)c2sc3ccccc3c2Cl)c1
Resp: 96

Req: For the compound CC(O)c1c(N(Cc2ccc(F)c(C(F)(F)F)c2)S(=O)(=O)c2ccccc2)sc2ccccc12 (stereo not drawn) , give its measured inhibition at 0.2 µM value.
Resp: 96

---

# ASSAY_SYSTEM: canine TRPM8 (Canis lupus familiaris, UniProt Q1A7N1)
# PROTOCOL: In Vitro Canine TRPM8 Functional Assay (Ca2+ fluorescence, icilin activation)
# Type: cell-based
# ASSAY_SETUP: HEK293 cells stably expressing canine TRPM8; icilin activation; eight-point dose-response; read-out: IC50
The entries below are paired with their reported pIC50.
Keep in mind that pIC50 stands for -log10 of concentration in molar terms.

Past entries and their recorded results:
COMPOUND: O=C(O)c1ccc(S(=O)(=O)N(CC23CC4CC(CC(C4)C2)C3)c2sc3ccccc3c2Br)cc1 [Compound 278]
pIC50: 9.00

COMPOUND: COC(=O)c1ccc(S(=O)(=O)N(CCC2CC2)c2sc3ccccc3c2C)cc1 [Compound 628]
pIC50: 7.63

Now turn to the next compound.
Req: Assign pIC50 to the following record: Cc1c(N(CCCC(F)(F)F)S(=O)(=O)c2ccc(C(=O)O)cc2)sc2cc(F)ccc12 [Compound 426]
Resp: 7.52

---

# ASSAY_SYSTEM: UniProtKB Q1A7N1
# PROTOCOL: In Vitro Canine TRPM8 Functional Assay (Ca2+ fluorescence, icilin activation)
# Format: cell-based
# ASSAY_SETUP: 0.2 μM compound; HEK293 cells stably expressing canine TRPM8, icilin activation; read-out: % Inh @ 0.2
Below, each of the compounds is paired with its reported inhibition at 0.2 µM value.
Please state the figure in %; there is no need to write the unit.

Take a look at these entries with their results.
COMPOUND: CCS(=O)(=O)N(Cc1ccc(F)c(OC)c1)c1sc2ccccc2c1C(C)=O
REPORTED_PROPERTY: inhibition at 0.2 µM
OBSERVED_MEASUREMENT: 103
//
COMPOUND: Cc1c(N(Cc2ccccc2)S(=O)(=O)c2ccc(OCc3ccccc3)c(F)c2)sc2ccccc12
REPORTED_PROPERTY: inhibition at 0.2 µM
OBSERVED_MEASUREMENT: 28

Req: Recall and state the measured inhibition at 0.2 µM for Cc1c(N(CCCCC(F)(F)F)S(=O)(=O)c2ccc(-c3n[nH]c(=O)[nH]3)cc2)sc2ccccc12 .
Resp: 103

Req: # return recorded inhibition at 0.2 µM for input Cc1c(N(Cc2ccc(OC(F)(F)F)cc2)S(=O)(=O)c2ccc(-c3nnn[nH]3)nc2)sc2ccccc12
Resp: 103

Req: Dear colleague, please send me the reported inhibition at 0.2 µM for Cc1c(N(Cc2ccc(OC(F)(F)F)cc2)S(=O)(=O)c2ccc(-c3nsc(=O)[nH]3)cc2)sc2ccccc12 when you can.
Resp: 102

Req: Answer with the recorded inhibition at 0.2 µM of Cc1c(N(CCCF)S(=O)(=O)c2ccccc2)sc2ccccc12 only.
Resp: 98
